phosphorylation enrichment for assorted sequences
# System: Fer (mouse)
# ASSAY_NOTES: phosphorylation enrichment, bacterial display (enrichment ratio); higher = better substrate or ligand; peptides without Tyr show the background
ASSAY_ENDPOINT: phosphorylation enrichment

>>> result_number("GDRPVYSEDEQ [CHST6_Y362_Y358D]")
0.653
>>> result_number("ISKKIYDTIHD [CTNNA3_Y614]")
0.421
>>> result_number("SPYAVYRFFTF [RPGRIP1_Y826]")
0.875
>>> result_number("ALKKPYGVLYK [RPF2_Y59]")
0.5
>>> result_number("SECCKYKIDNP [OSMR_Y689]")
0.407
>>> result_number("LFLALYTGLVH [PIGB_Y402]")
1.46
>>> result_number("TNLVPYTRIHF [TUBA1A_Y262_P263T]")
0.385
>>> result_number("ASRKFYAMKIL [AKT3_Y174_G171R_YF]")
0.362
>>> result_number("TESALYGCTVV [KIAA1804_Y724_L729V]")
5
>>> result_number("DFFDLYGGKKF [PTPN11_Y66_E69K_YF]")
0.499
>>> result_number("KGERGYPGTPG [COL4A1_Y348]")
0.399
>>> result_number("MEVEQYIFVKC [CYBB_Y324_G322E]")
0.679
>>> result_number("GESLTYVSTTF [C1orf162_Y120_A121V]")
0.512
>>> result_number("HLEKKYVRRDS [CSF1R_Y708]")
1.67

###

# TARGET_OR_SYSTEM: Hck (UniProt P08631)
# Sequence (P08631 whole entry, looked up): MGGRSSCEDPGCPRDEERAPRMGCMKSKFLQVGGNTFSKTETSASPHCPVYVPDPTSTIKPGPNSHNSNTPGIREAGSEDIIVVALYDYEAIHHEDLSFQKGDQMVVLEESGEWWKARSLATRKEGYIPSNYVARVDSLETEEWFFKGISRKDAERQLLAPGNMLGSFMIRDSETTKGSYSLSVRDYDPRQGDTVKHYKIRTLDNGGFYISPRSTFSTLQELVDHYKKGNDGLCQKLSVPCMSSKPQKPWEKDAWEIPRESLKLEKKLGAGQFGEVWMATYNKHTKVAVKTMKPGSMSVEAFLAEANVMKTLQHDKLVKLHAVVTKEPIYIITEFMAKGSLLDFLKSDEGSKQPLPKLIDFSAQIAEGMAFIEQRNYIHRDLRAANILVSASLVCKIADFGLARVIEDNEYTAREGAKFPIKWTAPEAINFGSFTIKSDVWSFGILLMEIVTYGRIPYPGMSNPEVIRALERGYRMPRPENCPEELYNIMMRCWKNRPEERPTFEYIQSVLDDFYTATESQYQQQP
# ASSAY_NOTES: phosphorylation enrichment, bacterial display (enrichment ratio); higher = better substrate or ligand; peptides without Tyr show the background
ASSAY_ENDPOINT: phosphorylation enrichment

>>> result_number("RFLFFYSFLLK [PTEN_Y178_V175L_YF]")
0.631
>>> result_number("INNIDYYKKTT [FGFR2_Y656]")
0.486
>>> result_number("PASWTYVRWFD [PTDSS1_Y274]")
1.14
>>> result_number("SARFHYLMAEK [LDHB_Y173_R172H]")
0.455
>>> result_number("GFPVHYTDVSN [DNMT3B_Y815]")
0.433
>>> result_number("SVVVRYEPPEV [TP53_Y220_P219R]")
0.42
>>> result_number("TNLVPYTRIHF [TUBA1A_Y262_P263T]")
0.487
>>> result_number("PIPAAYNRYDQ [CDC73_Y290]")
0.507
>>> result_number("RLSELYLRRNR [CFAP410_Y68]")
0.827
>>> result_number("VIECSYTSADG [DHCR7_Y382]")
0.471
>>> result_number("ESFCLYPPVPQ [CYP4B1_Y377_R375C]")
0.484
>>> result_number("DSNLIYSQIWS [FCRL3_Y662_P660L]")
9.1
>>> result_number("TIMTNYNPNFC [ALK_Y1092_D1091N_YF]")
0.5
>>> result_number("SEASYYKSLNL [NGEF_Y289]")
0.643
>>> result_number("TDISLYPSGGT [TENM4_Y399_V396I]")
0.398
>>> result_number("NHFKICNLCAE [PTEN_Y68_Y68C_YF]")
0.413
>>> result_number("CQKRKYIEIDS [SDAD1_Y580_S575C]")
0.48
>>> result_number("EQKKFYNATKK [SCN5A_Y1495_M1498T_YF]")
0.449
>>> result_number("LPKVSCVKAID [GLRA1_Y307_Y307C]")
0.695
>>> result_number("KNNDGNIDYAE [MCFD2_Y135_Y135N]")
0.524
>>> result_number("RFLERYIYNRE [HLA-DPB1_Y57]")
1.73
>>> result_number("FGIAQYCCRMG [LRRK2_Y2023_YF]")
0.777
>>> result_number("ETKKQYNSFTY [TMED3_Y85_D86N]")
0.423
>>> result_number("GMIQAYSSSQR [DES_Y5_S2I]")
0.412
>>> result_number("TENAGYFFQVS")
0.442
>>> result_number("PVQDAYQKVVA [HBB_Y131_A129D]")
0.353
>>> result_number("VRFMADTDETF [F8_Y450_Y450D]")
0.59
>>> result_number("GESLTYVSTTF [C1orf162_Y120_A121V]")
0.621
>>> result_number("FPLELYERVRM [PRKCG_Y312_YF]")
1.24
>>> result_number("WGLRSYFETSK [MAGED2_Y448_YF]")
0.489
>>> result_number("RRGTRYMSSRP [RPL21_Y13_F15S]")
0.621
>>> result_number("QISRDYGVLLE [PRDX3_Y172]")
0.751
>>> result_number("ERIELYELDKK [PMM2_Y145_F144L]")
0.574
>>> result_number("KENITYMKREQ [L1TD1_Y24]")
0.554
>>> result_number("GRLFAYPDTHR [CAT_Y358]")
0.397
>>> result_number("DFFDLYGGKKF [PTPN11_Y66_E69K_YF]")
7.26
>>> result_number("VKANTYEKFWL [GATM_Y100_P105L_YF]")
0.684
>>> result_number("TYGVAYRAKDK [CDK11B_Y453_V452A]")
1.15
>>> result_number("QDKDLYPCPGT [RLF_Y671_R668K]")
0.625
>>> result_number("DPKFHYDNTAG [KDR_Y1214]")
0.496
>>> result_number("HPYNSYTYPRL [PAK5_Y316_S312P]")
0.984
>>> result_number("QRIHNYYEHRY [HCN4_Y554_D553N]")
1.33
>>> result_number("CENNRYGMGTS [PDHA1_Y227]")
0.555
>>> result_number("ERNARYRTPKI [PTK2B_Y699]")
0.351
>>> result_number("WNNLDYMDSRR [GAA_Y407_D404N]")
0.572
>>> result_number("ELTSVYDSRAR [SENP1_Y349]")
1.62
>>> result_number("CSPLLYKVIMS [OR8D4_Y132_R133K]")
0.566
>>> result_number("QQLDEYQKLLD [LMNA_Y359_E361K]")
0.742
>>> result_number("WKEIEYEVVRD [CPS1_Y634]")
0.609
>>> result_number("VRSTEYPCAGL")
0.338
>>> result_number("ALRHYYKLNII [ETV6_Y402]")
0.527
>>> result_number("SETDDYAEIID [PTK2_Y397]")
0.702
>>> result_number("ADDSFYTARSA [ZAP70_Y493_YF]")
1.01
>>> result_number("FFLGKYLQEVL [KLB_Y910_YF]")
0.42
>>> result_number("KDFTKYVAYIE [KDM4B_Y31_N29T]")
0.558
>>> result_number("QRPFVYFFSFL [PTEN_Y176_R173P_YF]")
0.426
>>> result_number("IENKLYGMSDS [RET_Y1062_P1067S]")
0.543
>>> result_number("LEHCQYVTQKV [ALDOB_Y204_E207Q]")
0.507

###

# Tested on: Fer (mouse)
# ASSAY_NOTES: phosphorylation enrichment, bacterial display (enrichment ratio); higher = better substrate or ligand; peptides without Tyr show the background
Assign Met whenever phosphorylation enrichment does not fall below 0.5; assign Not met whenever it does.

>>> assigned_label("QITQVYGFYHE [PPP2CA_Y127_D131H]")
"Met"
>>> assigned_label("DVMDFYKTLRG [NR3C1_Y30]")
"Not met"
>>> assigned_label("KHASTYREAAT [DEAF1_Y483]")
"Not met"
>>> assigned_label("IEELTYVIKQD [STX5_Y137_I138V]")
"Met"
>>> assigned_label("SEDSEYYKAFE [CASQ2_Y178]")
"Met"
>>> assigned_label("IKGNMYYENSY [EGFR_Y112_R108K]")
"Met"
>>> assigned_label("SYNNKYGMVAQ [APOB_Y276_K273N]")
"Not met"
>>> assigned_label("NLNGKYYKPRA [ANGPTL3_Y417_N418Y]")
"Not met"
>>> assigned_label("KTKIGYSPLHQ [ANK1_Y735_L733I]")
"Not met"
>>> assigned_label("DPYHVYIKNRV [KCNE3_Y95]")
"Not met"
>>> assigned_label("SGFESYGSSSF [RPA2_Y9_YF]")
"Not met"

###

# TARGET_OR_SYSTEM: c-Src SH2;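 also: peptide library displayed on the E. coli surface as eCPX fusions, selected cells deep-sequenced, score is each peptide's frequency after selection divided by its frequency in the input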
# ASSAY_NOTES: SH2 binding enrichment of the phosphorylated peptide, bacterial display (enrichment ratio); higher = better substrate or ligand; peptides without Tyr show the background
Label scheme for SH2 binding enrichment: lower than 0.7 is not met, 0.7 and above is met.

>>> assigned_label("HKLSSYEFDFE [BTK_Y40_Y39S_YF]")
"met"
>>> assigned_label("EARRVYGDIIY [ALDH5A1_Y175_H180Y]")
"not met"
>>> assigned_label("EPYEVYRIVPE [IRF8_Y110_K108E]")
"not met"
>>> assigned_label("FTNELYMMMRD [FGFR1_Y730_C725Y_YF]")
"not met"
>>> assigned_label("RGVAHYILQTF [SLC39A4_Y359_T357A]")
"met"
>>> assigned_label("LPPGTYPSDFT [UNC5B_Y511_A516T]")
"not met"
>>> assigned_label("EGNERYEGFCV [GRIA3_Y451_YF]")
"met"
>>> assigned_label("TNLVPYTRIHF [TUBA1A_Y262_P263T]")
"met"
>>> assigned_label("SHNKFYMLVAH [MFSD8_Y134_R139H_YF]")
"met"
>>> assigned_label("GMTLSYLFWEP [NDUFS8_Y74_R77W]")
"met"
>>> assigned_label("PVQAVYQKVVA [HBB_Y131_A130V]")
"met"
>>> assigned_label("GDRPVYSEDEQ [CHST6_Y362_Y358D]")
"met"
>>> assigned_label("EEEFEYMNRRR [ERBB3_Y1199_D1194E_YF]")
"not met"
>>> assigned_label("ATFRGYDSDNP [MMUT_Y146_H143Y_YF]")
"not met"
>>> assigned_label("PSPMPYASCQM [FOXL2_Y215]")
"met"
>>> assigned_label("WKEIEYEVVRD [CPS1_Y634]")
"not met"
>>> assigned_label("LVRPPYSYSAL [FOXI1_Y126]")
"met"
>>> assigned_label("RIVTTYIRERE [DNM2_Y463]")
"not met"
